Experiment: AUC (0 to infinity) in Sprague-Dawley rat at 5 mg/kg, po by LC-tandem mass spectrometry analysis
Type: ADME, organism-based
Design: dose 5 mg/kg, time infinity, route oral
Details: in vivo
Parameter Measured: AUC(0-inf) (ng·h/mL)
Please respond with the number in ng·h/mL and leave the unit unwritten.

Asked: Quick check: AUC(0-inf) of "O=C(Nc1cccc(Br)c1)Nc1cc(Oc2ccc3nc(NC(=O)C4CC4)sc3c2)ccc1F" ?
Given back: 9320

----------
Assay: Oral bioavailability in Sprague-Dawley rat at 5 mg/kg by LC-tandem mass spectrometry analysis
Format: ADME, organism-based
Conditions: in vivo
Parameter Measured: bioavailability (%)
Number in %, nothing else.

Asked: Which measured bioavailability value corresponds to "O=C(Nc1cccc(Br)c1)Nc1cc(Oc2ccc3nc(NC(=O)C4CC4)sc3c2)ccc1F" ?
Given back: 25.2
